Quick list: pIC50 per entry.
- Measured On: Prothrombin (Homo sapiens)
- Test Protocol: Inhibition of thrombin
pIC50: −log10 of the molar value.

Sample answers from the record:
Smiles Input: COc1ccccc1NC(=O)CCC(=O)Nc1ccc2c(c1)C(=O)C(=O)NC2=O
Test Value: < 5.30

Smiles Input: O=C(CCC(=O)N1CCCCC1)Nc1ccc2c(c1)C(=O)C(=O)NC2=O
Test Value: < 5.30

Smiles Input: O=C(O)CCC(=O)Nc1ccc2c(c1)C(=O)C(=O)NC2=O
Test Value: < 5.30

Kindly consider the entry below.
Given the entry O=C1NC(=O)c2ccccc2C1=O , report its measured pIC50. < 5.30

====

Sequence of the target: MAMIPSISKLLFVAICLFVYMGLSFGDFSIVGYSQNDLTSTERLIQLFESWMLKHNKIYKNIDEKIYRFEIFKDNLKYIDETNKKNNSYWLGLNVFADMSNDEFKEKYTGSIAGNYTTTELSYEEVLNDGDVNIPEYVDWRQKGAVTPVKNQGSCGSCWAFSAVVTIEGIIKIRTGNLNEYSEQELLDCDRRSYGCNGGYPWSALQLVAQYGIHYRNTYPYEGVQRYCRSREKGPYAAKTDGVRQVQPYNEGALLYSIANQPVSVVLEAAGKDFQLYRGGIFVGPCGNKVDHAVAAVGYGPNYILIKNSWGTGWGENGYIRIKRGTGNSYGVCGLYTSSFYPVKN
Readout Label: IC50

Compound: CC(=O)OC(C(=O)Nc1cccc2c1C(=O)C(=O)NC2=O)c1ccccc1 (configuration not stated)
Test Value: > 5 µM

Kindly consider the entry below.
Given the entry O=C1NC(=O)c2ccccc2C1=O , report its measured IC50. > 5 µM

====

- Measured On: Trypsin (Homo sapiens, UniProt P07477+P07478+P35030)
- Test Protocol: Inhibition of trypsin
- Format: protein assay
Readout Label: IC50

Sample answers from the record:
Molecule: O=C1NC(=O)c2ccccc2C1=O
Measured On: Trypsin (Homo sapiens, UniProt P07477+P07478+P35030)
Test Value: > 5 µM
//
Molecule: O=C1NC(=O)c2cc(NC(=O)c3ccc([N+](=O)[O-])cc3)ccc2C1=O
Measured On: Trypsin (Homo sapiens, UniProt P07477+P07478+P35030)
Test Value: > 5 µM
//
Molecule: O=C(CCCl)Nc1ccc2c(c1)C(=O)C(=O)NC2=O
Measured On: Trypsin (Homo sapiens, UniProt P07477+P07478+P35030)
Test Value: > 5 µM
//
Molecule: CC(=O)OC(C(=O)Nc1cccc2c1C(=O)C(=O)NC2=O)c1ccccc1 (configuration not stated)
Measured On: Trypsin (Homo sapiens, UniProt P07477+P07478+P35030)
Test Value: > 5 µM
//
Molecule: COc1ccccc1NC(=O)CCC(=O)Nc1ccc2c(c1)C(=O)C(=O)NC2=O
Measured On: Trypsin (Homo sapiens, UniProt P07477+P07478+P35030)
Test Value: > 5 µM

Given the entry O=C(O)CCC(=O)Nc1ccc2c(c1)C(=O)C(=O)NC2=O , report its measured IC50. > 5 µM

And then O=C(CCC(=O)N1CCCCC1)Nc1ccc2c(c1)C(=O)C(=O)NC2=O , what is it? > 5 µM

====

- Measured On: Caspase-3 (Homo sapiens, UniProt P42574)
- Sequence (P42574 29-175 limits assumed): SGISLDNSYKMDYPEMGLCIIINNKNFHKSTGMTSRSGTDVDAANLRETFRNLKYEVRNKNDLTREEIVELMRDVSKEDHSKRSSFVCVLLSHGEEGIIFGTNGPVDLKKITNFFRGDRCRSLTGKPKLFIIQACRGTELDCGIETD
- Sequence (P42574 176-277 limits assumed): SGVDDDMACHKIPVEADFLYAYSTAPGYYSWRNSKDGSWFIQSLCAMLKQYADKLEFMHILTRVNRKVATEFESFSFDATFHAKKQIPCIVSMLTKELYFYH
Readout Label: IC50 (nM)

A: O=C(O)CCC(=O)Nc1ccc2c(c1)C(=O)C(=O)NC2=O
B: COc1ccccc1NC(=O)CCC(=O)Nc1ccc2c(c1)C(=O)C(=O)NC2=O
Of A and B , which carries the smaller reported IC50 figure? Let me know the label of the one you choose. A
(A: 68 nM, B: 113 nM)
